# assayDetails: Maximum soluble amount of bulk drug for intravenous dosing
# Type: physicochemical
# conditionSummary: expressed as dose
valueKind: maximum soluble amount

Solved entries (count: 3):
CCc1ccc(CCOc2ccc(CC3SC(=O)NC3=O)cc2)nc1 (stereo not shown) ... 3.0 mg/kg
CCCCC1=NC2(CCCC2)C(=O)N1Cc1ccc(-c2ccccc2-c2nnn[nH]2)cc1 ... 3.0 mg/kg
O=C(O)C[C@H](O)C[C@H](O)/C=C/c1c(C2CC2)nc2ccccc2c1-c1ccc(F)cc1 ... 10 mg/kg

Note: attention shifts to another entry.
Return reported maximum soluble amount; argument: CSc1ccc(C(=O)N[C@H]2CCCC[C@H]2NC(=O)CNC(=O)c2cc(C(F)(F)F)ccc2NC(=O)NC(C)C)cc1 (relative stereo) 1.0 mg/kg
